- System: OVCAR-4
- Measurement Protocol: NCI tumour cell line growth inhibition, 48 h
Activity calls are given as the source filed them. Rule as the data show it: active = GI50 up to about 1.1 µM and inactive = higher.
Value Type: GI50

[
  {
    "Molecule": "Cc1ccc(S(=O)(=O)N2CCCCN(S(=O)(=O)c3ccc(C)cc3)Cc3ccccc3OCCOCCOc3c4cccc3Cc3cccc5c3OCCOCCOc3ccccc3CN(S(=O)(=O)c3ccc(C)cc3)CCCN(S(=O)(=O)c3ccc(C)cc3)Cc3ccccc3OCCOCCOc3c(cccc3C4)Cc3cccc(c3OCCOCCOc3ccccc3C2)C5)cc1",
    "GI50": "> 100 µM (inactive)"
  }
]

Q. Given the entry O=C(O)c1ccc2c(c1)CC1(C2)Cc2cc3c(cc2C1=O)CCC3 (centres undefined) , report its measured GI50.
A. > 100 µM (inactive)

Q. For the molecule shown here, C[P+](C)(C)C , give the reported GI50.
A. > 100 µM (inactive)

Q. May I ask what GI50 has been recorded for O=Cc1cc(O)c(O)c(O)c1-c1c(C=O)cc(O)c(O)c1O ?
A. > 100 µM (inactive)

Q. Quick one: GI50 of COc1ccc(-c2cn3c(nc4ccccc43)c(C)n2)cc1 ?
A. 47.6 µM (inactive)
